Tested System: human 5-HT2C (h5-HT2C) receptor (Homo sapiens)
Sequence (P28335 33-458): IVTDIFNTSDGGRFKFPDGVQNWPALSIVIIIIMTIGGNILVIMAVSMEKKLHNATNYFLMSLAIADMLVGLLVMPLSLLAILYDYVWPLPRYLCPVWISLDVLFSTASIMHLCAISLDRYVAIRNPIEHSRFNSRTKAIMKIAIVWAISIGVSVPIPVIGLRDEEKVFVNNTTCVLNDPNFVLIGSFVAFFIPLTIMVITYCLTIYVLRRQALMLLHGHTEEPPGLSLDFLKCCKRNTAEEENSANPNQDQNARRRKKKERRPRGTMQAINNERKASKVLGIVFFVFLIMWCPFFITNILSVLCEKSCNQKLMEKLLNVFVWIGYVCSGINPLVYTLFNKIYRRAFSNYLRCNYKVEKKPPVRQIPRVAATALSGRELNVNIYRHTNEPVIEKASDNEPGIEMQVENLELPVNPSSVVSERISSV
Experiment Notes: 5-HT2C receptor functional assay (Gq-mediated calcium flux) of saliva-hydrolyzed modified indole alkaloids
Assay Conditions: 5HT2C agonist activity; compounds hydrolyzed by treatment with human saliva; Flp-In T-REx 293 cells expressing h5-HT2C; peak calcium flux
Metric Name: pEC50
FYI, pEC50 means -log10 of a concentration in mol per litre.

Exercise: Query (compound): CN(CCc1c[nH]c2cccc(O[C@H]3O[C@H](CO)[C@@H](O)[C@H](O)[C@H]3O)c12)C1CC1 (stereo in doubt) [Hydrolyzed Compound A-9] ; field requested: pEC50
Key: 6.83

Exercise: // pEC50 lookup, key: CCN(C)CCc1c[nH]c2cccc(O[C@H]3O[C@H](CO)[C@@H](O)[C@H](O)[C@H]3O)c12 (stereo in doubt) [Hydrolyzed Compound A-1]
Key: 7.52

Exercise: pEC50 lookup needed for CCCN(C)CCc1c[nH]c2cccc(O[C@H]3O[C@H](CO)[C@@H](O)[C@H](O)[C@H]3O)c12 (stereo in doubt) [Hydrolyzed Compound A-2] , thanks.
Key: 7.32

---

Tested System: human 5-HT2A (h5-HT2A) receptor (Homo sapiens)
Construct: host or cells: Flp-In T-REx 293 cells
Sequence (P28223 whole entry): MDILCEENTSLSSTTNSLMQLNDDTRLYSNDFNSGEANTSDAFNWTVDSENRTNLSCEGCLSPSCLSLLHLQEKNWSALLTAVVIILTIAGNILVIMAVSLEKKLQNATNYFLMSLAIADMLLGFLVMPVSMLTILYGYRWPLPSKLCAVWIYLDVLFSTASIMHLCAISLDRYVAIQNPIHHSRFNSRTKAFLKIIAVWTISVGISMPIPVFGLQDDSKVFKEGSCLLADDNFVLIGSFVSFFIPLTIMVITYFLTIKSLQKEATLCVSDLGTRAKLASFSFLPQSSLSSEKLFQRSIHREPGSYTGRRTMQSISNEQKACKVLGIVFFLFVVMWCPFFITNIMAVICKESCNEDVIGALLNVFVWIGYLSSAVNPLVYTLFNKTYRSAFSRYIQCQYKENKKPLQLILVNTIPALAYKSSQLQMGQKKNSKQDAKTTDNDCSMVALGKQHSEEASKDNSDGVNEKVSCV
Experiment Notes: 5-HT2A receptor functional assay (Gq-mediated calcium flux) of saliva-hydrolyzed modified indole alkaloids
Type: cell-based
Assay Conditions: 5HT2A agonist activity; compounds hydrolyzed by treatment with human saliva; normalized to 5-HT (100%)
Metric Name: Emax % 5-HT (± SEM) (% 5-HT)
Field: numeric (% 5-HT). Do not append units.

| Compound | Metric Name | Result Number |
| --- | --- | --- |
| CN(CCc1c[nH]c2cccc(O[C@H]3O[C@H](CO)[C@@H](O)[C@H](O)[C@H]3O)c12)C1CC1 (stereo in doubt) [Hydrolyzed Compound A-9] | Emax % 5-HT (± SEM) | 99.4 |
| CCN(CC)CCc1c[nH]c2cccc(O[C@H]3O[C@H](CO)[C@@H](O)[C@H](O)[C@H]3O)c12 (stereo in doubt) [Hydrolyzed Compound A-4] | Emax % 5-HT (± SEM) | 100.1 |

Exercise: GET /values?readout=Emax % 5-HT (± SEM)&item= CCN(C)CCc1c[nH]c2cccc(O[C@H]3O[C@H](CO)[C@@H](O)[C@H](O)[C@H]3O)c12 (stereo in doubt) [Hydrolyzed Compound A-1]
Key: 96.7

Exercise: Please look up its Emax % 5-HT (± SEM): CCCN(CC)CCc1c[nH]c2cccc(O[C@H]3O[C@H](CO)[C@@H](O)[C@H](O)[C@H]3O)c12 [Hydrolyzed Compound A-5]
Key: 99.4

Exercise: I would be grateful if you could share the reported Emax % 5-HT (± SEM) for CC(C)N(CCc1c[nH]c2cccc(O[C@H]3O[C@H](CO)[C@@H](O)[C@H](O)[C@H]3O)c12)C(C)C (stereo in doubt) [Hydrolyzed Compound A-7] .
Key: 103

Exercise: Which measured Emax % 5-HT (± SEM) value corresponds to CCCN(C)CCc1c[nH]c2cccc(O[C@H]3O[C@H](CO)[C@@H](O)[C@H](O)[C@H]3O)c12 (stereo in doubt) [Hydrolyzed Compound A-2] ?
Key: 98.0

Exercise: Using the record for CCCN(CCC)CCc1c[nH]c2cccc(O[C@H]3O[C@H](CO)[C@@H](O)[C@H](O)[C@H]3O)c12 (stereo in doubt) [Hydrolyzed Compound A-6] , report its Emax % 5-HT (± SEM).
Key: 103.2

Exercise: Look up Emax % 5-HT (± SEM) for this compound: C=CCN(C)CCc1c[nH]c2cccc(O[C@H]3O[C@H](CO)[C@@H](O)[C@H](O)[C@H]3O)c12 (stereo in doubt) [Hydrolyzed Compound A-8]
Key: 102
